Each recorded value in this set is attributed to a melting point compilation (Tetko et al.; mined from patent text by program, amines drawn as free bases though some values may be those of a salt).

Known melting point of a selection of compounds

compound	melting point
O=C1c2cc3nnn(Cc4cccnc4)c(=O)c3cc2OC2CCCN12 (stereo unspecified)	203 to 205 °C
CCOC(=O)c1cn(C)cc(-c2ccccc2)c1=O	107 to 108 °C

Please look at the following compound next.
Q. For the compound shown here, `S=C(SCc1ccccc1)N1CC2CCC(CC2)C1` , give the reported melting point.
A. 98 to 99 °C

---

Reported melting point by item:

molecule	result
COc1ccc(Nc2ccncc2)cc1	129 to 134 °C
O=[N+]([O-])c1cc(Cl)c(Cl)c(Cl)c1Cl	41 to 44 °C
COC(=O)/C=C/c1occc(=O)c1OCC(=O)OC(C)(C)C	115 to 116 °C
O=C(O)Cn1nnc(-c2ccc3c(c2)S(=O)(=O)c2ccccc2C3=O)n1	194 to 195 °C
Cc1cc(=O)c(C(=O)NS(C)(=O)=O)nn1-c1ccc(Cl)cc1	225 to 227 °C

Field: next molecule
Q. Param item = `CC(C)(C)OC(=O)N[C@@H](CC1CCCCC1)[C@@H](O)[C@@H](O)CN=[N+]=[N-]` ; retrieve measured melting point.
A. 93 to 94 °C

---

quantity.measured: melting point

Q. Sample `S=C(Cc1ccccc1)n1c(-c2cscn2)nc2ccccc21` — what was its melting point?
A. 122 to 123 °C

Q. Which melting point is listed for `CCC(=O)N(C(=O)CC)c1cc2c(cc1C)N(C(=O)CC)c1ccc(N(C)C)cc1N2C(=O)CC` ?
A. 198 to 199 °C

Q. Given `CC(=O)NCC[C@@H]1CCc2ccc3nn(C)c(F)c3c21` , state its recorded melting point.
A. 155 to 156 °C

Q. May I ask what melting point has been recorded for `CCONS(=O)(=O)c1ccc(C)cc1` ?
A. 94 to 95 °C

---

The reader will find reported melting point values listed item by item below.

Please review the entries below; each comes with its answer.
molecule	result
COc1cc(C[C@H](NC(=O)OC(C)(C)C)C(=O)O)cc(OC)c1OC	76 to 80 °C
CCOC(=O)C(C(=O)OC(C)(C)C)c1c([N+](=O)[O-])cc([N+](=O)[O-])c2ccccc12 (stereo unspecified)	86 to 88 °C
Oc1ccc(C2CC2(Cl)Cl)cc1 (stereo unspecified)	54.5 to 56 °C
CCN(CC)C(=O)c1ccoc1-c1ccc2ccccc2c1	92 to 93 °C

Q. # get_value(readout='melting point', item= `Cc1ccc(C(=O)c2c(Br)cc(CC(=O)O)n2C)cc1` )
A. 155 to 157 °C

Q. What does the record list as melting point for `CN(C)CCSc1cc(NC(=O)OC(C)(C)C)c([N+](=O)[O-])cc1I` ?
A. 144 °C

Q. Looking for the measured melting point of CCn1cc2c(C3CC3CNC(C)=O)cccc2n1 (stereo unspecified) , can you help?
A. 155 to 159 °C

Q. Looking for the measured melting point of `O=Cc1nn(-c2ccc([N+](=O)[O-])cc2)c2c1CCC2` , can you help?
A. 209 to 210 °C

Q. What melting point value was documented for this molecule, `CCCCCCCCCCCCCCCC(=O)n1nnnc1C(F)(F)F` ?
A. 66 to 69 °C

Q. What does the record list as melting point for `COC(=O)C=CC(=O)NC(N)=O` ?
A. 112 to 114 °C

Q. Fill in: melting point of `CN(Cc1ccccc1)c1nc(Cl)ncc1F` is ___
A. 47 to 49 °C

Q. Which melting point value belongs to CN(C)C1(c2ccccc2)CCC(C(=O)c2cc3ccccc3n2C)(N2CCCC2)CC1 (stereo unspecified) ?
A. 212 to 218 °C

Q. Quick one: melting point of N#CCN1C(=O)C2(COc3cc4c(cc32)OCO4)c2ccccc21 (stereo unspecified) ?
A. 170 to 172 °C

---

Catalogue of molecules with associated melting point

Reference set, count: 2
molecule	melting point
COc1cc(CN(C)c2nn(-c3ccccc3)cc2C=O)ccc1OCc1nc(-c2ccco2)oc1C	101 to 102 °C
CCC1(CC)OC(=S)Nc2ccc(-c3cccc([N+](=O)[O-])c3)cc21	180 to 181 °C

We next turn to a different molecule, shown below.
Q. Request the reported melting point associated with O=C1C(=O)c2ccccc2C2=C1SCC1(CCC(c3ccccc3)CC1)O2 (stereo not drawn)
A. 183 to 187 °C

---

quantity.measured: melting point

molecule	melting point
CCC(CC)OCc1c(-c2ccc(OC(F)F)c(OC3CC3)c2)[nH]c2cn[nH]c(=O)c12	133 to 162 °C
O=c1[nH]c2ccsc2c(=O)n1CCN1CCN(c2ccccc2)CC1	215 to 217 °C
CCN(CC)C(=O)c1nc(-c2cccc3ccccc23)no1	102 °C
COc1cc(OC)cc(C(=O)N2CCc3cc(OCc4ccccc4)c(OC)cc3C2)c1	130 to 131 °C
Cc1ccc(S(=O)(=O)OCC2CCCc3scnc32)cc1 (stereo unspecified)	64 to 65 °C
CC(C)(C)OC(=O)N1CCCC(c2nc3c(N[C@H]4[C@@H](C(N)=O)[C@@H]5C=C[C@H]4C5)ccnc3[nH]2)C1 (stereo partly specified)	222 to 225 °C

Q. Query (molecule): `CCCCc1c(C(=O)O)c2ccccc2n1C` ; field requested: melting point
A. 163 to 165 °C

Q. State the recorded melting point for this entry: CCCC(=O)OC1CC(n2cc(CC)c(=O)[nH]c2=O)OC1CNC(=O)Cc1c(Cl)cccc1Cl (stereo unspecified)
A. 130 to 132 °C

Q. Fill blank: measured melting point of the molecule `Nc1ccc(Oc2ncnc(Oc3ccccc3Cl)c2F)c(Cl)c1Cl` is ____.
A. 162 to 163 °C

---

quantity.measured: melting point

compound	melting point
O=C(O)CNC(COCc1cc(C(F)(F)F)cc(C(F)(F)F)c1)C(c1ccccc1)c1ccccc1 (configuration not stated)	116 to 119 °C
Cc1cc2nc3c(nc2cc1[N+](=O)[O-])SC(C#N)=C(C#N)S3	155 to 157 °C

Q. Using the record for COc1ccc(C2=NN(C3CCCCCC3)C(=O)[C@H]3CC=CC[C@@H]23)c2c1OC(C)(C)C2 (relative stereo) , report its melting point.
A. 114 to 115 °C

Q. Entry CC(C(N)=NO)N(CCN(C(C)C(N)=NO)C(C)C(N)=NO)C(C)C(N)=NO (configuration not stated) has what melting point?
A. 191 to 192 °C

Q. Return reported melting point; argument: CCCCCCCCCCCC1OC1C(=O)O (configuration not stated)
A. 76 to 77 °C

Q. // melting point lookup, key: `CC(=O)Oc1ccc(-c2c(C)c3cccc(OC(C)=O)c3oc2=O)c(OC(C)=O)c1`
A. 119 to 120 °C

Q. Query: melting point; subject: CC(C#Cc1ccc(Oc2cncc(Cl)c2)o1)N(O)C(N)=O (configuration not stated)
A. 150 °C

Q. melting point for O[C@@H]1CNC[C@H]1Oc1cccc(Cl)c1 (relative stereo) ?
A. 128 to 129 °C

Q. I would be grateful if you could share the reported melting point for CCc1cc2c(cc1OC(C)=O)CCC1C2CCC2(C)C(C#N)=CCC12 (configuration not stated) .
A. 176 to 177 °C

Q. Given the entry `COC(=O)C(CCn1c(C(=O)c2ccccc2)cc(Br)c1Br)C(=O)OC` , report its measured melting point.
A. 96 to 96.5 °C

Q. // lookup melting point for `O=C(Nc1ccc(F)c(CO)c1)c1ccccn1`
A. 99 to 122 °C

Q. So what does the record say about melting point for `NS(=O)(=O)c1ccc(NN=Cc2ccc(Br)cc2)cc1` ?
A. 190 to 192 °C

---

melting point overview

compound	melting point
O=[N+]([O-])c1ccc(-c2cc3c(O)ncnc3o2)cc1	> 350 °C

Q. For `Nc1sc2c(c1C(=O)c1cccc3ccccc13)CCN(Cc1ccccc1)C2` , what is its reported melting point?
A. 178 to 180 °C

Q. What melting point value was documented for this compound, `CSc1nn2c(O)cc(C)nc2c1S(=O)(=O)c1ccc(C)cc1` ?
A. > 230 °C

---

quantity.measured: melting point

compound	melting point
COC(=O)COc1cc2c(c3c1c(C(=O)C(N)=O)c(C)n3Cc1cccc(F)c1)CCC2	142 to 144 °C
CN1CC=C(C2=C(C#N)C(c3cccc4nonc34)c3c[nH]nc3N2)CC1 (configuration not stated)	218 °C

Q. For the compound shown here, O=C(O)[C@H](Cc1ccc(F)cc1)[C@@H](O)c1ccc(C(F)(F)F)cc1 (racemic) , give the reported melting point.
A. 120 to 121 °C

Q. Need melting point of `O=C(NCc1ccccn1)Nc1cc(N2CCCC2=O)ccn1` , thanks.
A. 234 to 235 °C

Q. I would be grateful if you could share the reported melting point for `O=C(O)c1nc2cc(N3CCOCC3)c([N+](=O)[O-])cc2[nH]c1=O` .
A. 214 °C

Q. Entry under review: `CCOC(=O)c1cnn(C)c1C(=O)Nc1ccn2nc(N(C)CC)nc2c1` . Reported melting point?
A. 167 °C

Q. Requested field: melting point. Item: `CC(C)(C)c1cc(OC(=O)c2ccccc2)ccc1O`
A. 120 to 121 °C

Q. Which measured melting point value corresponds to `C=C(c1ccc(C(C)C)cc1)c1c(C)c(NC(=O)CCCC)c(C)c2c1OCC2` ?
A. 172 to 173 °C

Q. Field request: melting point | item: `CC(=O)Nc1ccc(Nc2c([N+](=O)[O-])cc(C(=O)O)cc2S(=O)(=O)NC(C)=O)cc1`
A. 175 to 185 °C

Q. Fill in: melting point of `COC(=O)NNC(=S)Cc1ccc(F)cc1` is ___
A. 150 to 152 °C

Q. Dear colleague, I am looking for the recorded melting point of the following compound: `COc1cc(COc2ccc(S(=O)(=O)c3ccc(C)nc3Nc3c(C)cc(C)cc3C)cc2)cc(OC)c1`
A. 107 to 109 °C

Q. Need melting point, item `COc1cc2c(c3c1OC(C)(C)C3)C(c1ccc(NS(C)(=O)=O)cc1)=NC(C)(C)C2`
A. 235 to 237 °C

Q. # melting point lookup, item CC1(C)CC(O)c2cc(Br)ccc2O1 (configuration not stated)
A. 97 to 99 °C

Q. Returns the measured melting point for the input compound. Input: `CC(C)OC(=O)N1CCC(c2nc3cc(-c4ccc(C(N)=O)cn4)ccc3o2)CC1`
A. 227 to 230 °C
